- Species on record: Homo sapiens
- Procedure Summary: Inhibition of 10 uM ADP induced platelet aggregation in human platelet rich citreated plasma (PRP)
- Type: functional
Parameter Measured: IC50

NC(N)=NCCC[C@H](NC(=O)[C@@H]1CSSC2(CCCCC2)[C@H](NC(=O)[C@@H](N)CCCN=C(N)N)C(=O)NCC(=O)N[C@@H](Cc2c[nH]cn2)C(=O)N[C@@H](CCCN=C(N)N)C(=O)NCC(=O)N[C@@H](CC(=O)O)C(=O)N[C@@H](Cc2ccc3ccccc3c2)C(=O)N[C@@H](CCCN=C(N)N)C(=O)N1)C(=O)O: 440 nM
N=C(N)NCCC[C@H](NC(=O)[C@@H]1CSSC2(CCCCC2)[C@H](NC(=O)[C@@H](N)CCCNC(=N)N)C(=O)NCC(=O)N[C@@H](Cc2c[nH]cn2)C(=O)N[C@@H](CCCNC(=N)N)C(=O)NCC(=O)N[C@@H](CC(=O)O)C(=O)N[C@@H](CCc2ccccc2)C(=O)N[C@@H](CCCNC(=N)N)C(=O)N1)C(=O)O: 600 nM
